Recorded measurements of MIC90, one per entry
- Test system: Aspergillus niger
- protocol_description: Antifungal activity against Aspergillus niger by NCCLS broth microdilution method
- Assay type: functional
- experimental_context: Aspergillus niger; read-out: MIC90

CC12CCCC(/C1=N\O)C(c1ccc(Cl)cc1)NC2c1ccc(Cl)cc1 (stereo unspecified); 64 mg/L

Memo: CON=C1C2CC(C)CC1C(c1ccc(F)cc1)NC2c1ccc(F)cc1 (stereo unspecified) , reported MIC90: 16 mg/L

For record CO/N=C1\C2CCCC1(C)C(c1cccc(F)c1)NC2c1cccc(F)c1 (stereo unspecified) the listed MIC90 is 64 mg/L

Quick note, MIC90 for CO/N=C1\C2CCCC1(C)C(c1ccc(OC)cc1)NC2c1ccc(OC)cc1 (stereo unspecified) landed at 128 mg/L

Lab note: CO/N=C1\C2CCCC1(C)C(c1ccc(F)cc1)NC2c1ccc(F)cc1 (stereo unspecified) gave MIC90 of 32 mg/L

Value of MIC90 reported for the compound CO/N=C1\C2CCCC1(C)C(c1ccccc1C)NC2c1ccccc1C (stereo unspecified) is 64 mg/L

// provenance: ChEMBL document CHEMBL1154956
